# Tested on: hiPSC-derived neurons co-cultured with human primary astrocytes in 3D
# assay_procedure: Ca2+ transient oscillation assay (FDSS), 3D spheroids
# Type: cell-based
# condition_summary: 3.33 µM; 60 min
# reported Area under the curve - 3D Mean; entries follow
Report only the number, with the unit % change from baseline understood.

{"compound": "CN1CCc2cc3c(cc2[C@H]1[C@@H]1OC(=O)c2c1ccc1c2OCO1)OCO3 [Bicuculline]", "attribute_measured": "Area under the curve - 3D Mean", "unit_spec": "% change from baseline", "experimental_result": 107.4}
{"compound": "Cc1ccc(Nc2nccc(N(C)c3ccc4c(C)n(C)nc4c3)n2)cc1S(N)(=O)=O [Pazopanib]", "attribute_measured": "Area under the curve - 3D Mean", "unit_spec": "% change from baseline", "experimental_result": 116.3}
{"compound": "Nc1ccncc1 [4-AP, 4-Aminopyridine]", "attribute_measured": "Area under the curve - 3D Mean", "unit_spec": "% change from baseline", "experimental_result": 97.2}
{"compound": "CNCCCC12CCC(c3ccccc31)c1ccccc12 [Maprotiline]", "attribute_measured": "Area under the curve - 3D Mean", "unit_spec": "% change from baseline", "experimental_result": 123.1}
{"compound": "N[C@@H](CCC(=O)O)C(=O)O [Glutamate]", "attribute_measured": "Area under the curve - 3D Mean", "unit_spec": "% change from baseline", "experimental_result": 129.9}
{"compound": "CC[C@@H]1C(=O)OC[C@@H]1Cc1cncn1C [Pilocarpine]", "attribute_measured": "Area under the curve - 3D Mean", "unit_spec": "% change from baseline", "experimental_result": 168.7}
{"compound": "CCN(CC)CCCC(C)Nc1c2ccc(Cl)cc2nc2ccc(OC)cc12 (stereo not drawn) [Quinacrine, quinacrine]", "attribute_measured": "Area under the curve - 3D Mean", "unit_spec": "% change from baseline", "experimental_result": 139.1}
{"compound": "CCn1cc(C(=O)O)c(=O)c2cc(F)c(N3CCNCC3)nc21 [Enoxacin]", "attribute_measured": "Area under the curve - 3D Mean", "unit_spec": "% change from baseline", "experimental_result": 139.4}
{"compound": "C=C(C)[C@H]1CN[C@H](C(=O)O)[C@H]1CC(=O)O [Kainic Acid]", "attribute_measured": "Area under the curve - 3D Mean", "unit_spec": "% change from baseline", "experimental_result": 174.3}
{"compound": "CC(=O)Nc1ccc(O)cc1 [Acetaminophen]", "attribute_measured": "Area under the curve - 3D Mean", "unit_spec": "% change from baseline", "experimental_result": 121.7}

Identify Area under the curve - 3D Mean associated with the compound OC(c1cc(C(F)(F)F)nc2c(C(F)(F)F)cccc12)C1CCCCN1 (stereo not drawn) [Mefloquine] 143.4

Supply Area under the curve - 3D Mean value. Item: CC(NC(C)(C)C)C(=O)c1cccc(Cl)c1 (stereo not drawn) [Bupropion] 154.1

* * *

# Test system: hiPSC-derived neurons co-cultured with human primary astrocytes in 3D
# assay_procedure: Ca2+ transient oscillation assay (FDSS), 3D spheroids
# Assay type: cell-based
# condition_summary: 0.37 µM; 60 min
Quick reference for Peak width - 3D Mean among some molecules
Just the number in % change from baseline, nothing appended.

{"molecule": "CC[C@@H]1C(=O)OC[C@@H]1Cc1cncn1C", "experimental_result": 6.3}
{"molecule": "C=C(C)[C@H]1CN[C@H](C(=O)O)[C@H]1CC(=O)O", "experimental_result": 4.9}
{"molecule": "CCn1cc(C(=O)O)c(=O)c2cc(F)c(N3CCNCC3)nc21", "experimental_result": 3.2}
{"molecule": "CCN(CC)CCCC(C)Nc1c2ccc(Cl)cc2nc2ccc(OC)cc12 (stereo not drawn)", "experimental_result": "−1.8"}
{"molecule": "CC(NC(C)(C)C)C(=O)c1cccc(Cl)c1 (stereo not drawn)", "experimental_result": 0.0}

Return Peak width - 3D Mean for the following molecule: CNCCCC12CCC(c3ccccc31)c1ccccc12 6.2

Given the molecule Cc1ccc(Nc2nccc(N(C)c3ccc4c(C)n(C)nc4c3)n2)cc1S(N)(=O)=O , write its reported Peak width - 3D Mean. 9.7

Please report the measured Peak width - 3D Mean for Nc1ccncc1 2.8

Read the entry CN1CCc2cc3c(cc2[C@H]1[C@@H]1OC(=O)c2c1ccc1c2OCO1)OCO3 and write its reported Peak width - 3D Mean. −0.3
